- Study target: PPARγ (Homo sapiens)
- Construct: purchased Invitrogen Corporation, Carlsbad, Calif
- Sequence (P37231 238-503 limits assumed): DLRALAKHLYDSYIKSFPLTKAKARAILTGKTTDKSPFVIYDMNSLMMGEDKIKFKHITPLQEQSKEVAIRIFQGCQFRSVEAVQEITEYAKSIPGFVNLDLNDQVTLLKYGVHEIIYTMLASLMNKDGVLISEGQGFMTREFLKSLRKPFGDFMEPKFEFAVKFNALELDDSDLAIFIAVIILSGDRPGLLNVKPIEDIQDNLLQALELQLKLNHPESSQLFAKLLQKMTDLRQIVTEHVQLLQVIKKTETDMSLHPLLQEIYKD
- Assay comment: Commercial PPARγ binding assay (Invitrogen, PPAR-LBD/Fluormone PPAR Green complex)
- Assay context: 3 μM compound; mean of three experiments
Binary classification by PPARγ binding signal (fluorescence polarization, Fluormone PPAR Green displacement), with 200 as an inclusive lower bound for Satisfied; all other cases are Not satisfied.

# Molecule, Category
measured = [
    ("CCc1ccc(CCOc2ccc(CC3(C)SC(=O)NC3=O)cc2)nc1 (single isomer, unassigned) [Compound 4]", "Satisfied"),
    ("CCc1ccc([C@H](O)COc2ccc(CC3SC(=O)NC3=O)cc2)nc1 (stereo partly shown) [Compound 3]", "Not satisfied"),
    ("CCc1ccc(C(O)COc2ccc(CC3(C)SC(=O)NC3=O)cc2)nc1 (stereo not shown) [Compound 5]", "Satisfied"),
]

QUERY: For this molecule, is measured PPARγ binding signal (fluorescence polarization, Fluormone PPAR Green displacement) 200 or higher? CCc1ccc(C(=CCO)COc2ccc(CC3SC(=O)NC3=O)cc2)nc1 (stereo not shown) [Compound 13]
RESULT: Satisfied

QUERY: Does PPARγ binding signal (fluorescence polarization, Fluormone PPAR Green displacement) meet or surpass 200 for CCc1ccc(C(COc2ccc(CC3SC(=O)NC3=O)cc2)CC(=O)OC)nc1 (stereo not shown) [Compound 12] ?
RESULT: Not satisfied

QUERY: Has CCc1ccc([C@@H](O)COc2ccc(CC3(C)SC(=O)NC3=O)cc2)nc1 (stereo partly shown) [Compound 8] a recorded PPARγ binding signal (fluorescence polarization, Fluormone PPAR Green displacement) greater than or equal to 200?
RESULT: Satisfied

QUERY: Tell me whether PPARγ binding signal (fluorescence polarization, Fluormone PPAR Green displacement) is at least 200 here: CCc1ccc([C@@H](O)COc2ccc(CC3SC(=O)NC3=O)cc2)nc1 (stereo partly shown) [Compound 2]
RESULT: Satisfied

QUERY: Has CCc1ccc(CCOc2ccc(CC3(C)SC(=O)NC3=O)cc2)nc1 (single isomer, unassigned) [Compound 6] a recorded PPARγ binding signal (fluorescence polarization, Fluormone PPAR Green displacement) greater than or equal to 200?
RESULT: Satisfied

QUERY: Given CCc1ccc(C(=O)COc2ccc(CC3SC(=O)NC3=O)cc2)nc1 (stereo not shown) [Compound 1] , state whether its PPARγ binding signal (fluorescence polarization, Fluormone PPAR Green displacement) is at least 200.
RESULT: Satisfied

QUERY: Is reported PPARγ binding signal (fluorescence polarization, Fluormone PPAR Green displacement) greater than or equal to 200 here: CCc1ccc(CCOc2ccc(CC3(C)SC(=O)NC3=O)cc2)nc1 (single isomer, unassigned) [Compound 7]
RESULT: Satisfied

QUERY: Determine whether measured PPARγ binding signal (fluorescence polarization, Fluormone PPAR Green displacement) meets or exceeds 200 for CCc1ccc([C@H](O)COc2ccc(CC3(C)SC(=O)NC3=O)cc2)nc1 (stereo partly shown) [Compound 9]
RESULT: Satisfied

QUERY: Does CCc1ccc(C(=CC(=O)OC)COc2ccc(CC3SC(=O)NC3=O)cc2)nc1 (stereo not shown) [Compound 11] have a reported PPARγ binding signal (fluorescence polarization, Fluormone PPAR Green displacement) of at least 200?
RESULT: Satisfied

QUERY: State whether the measured PPARγ binding signal (fluorescence polarization, Fluormone PPAR Green displacement) reaches 200, counting equality as reaching it, for CCc1ccc(C(=O)COc2ccc(CC3(C)SC(=O)NC3=O)cc2)nc1 (stereo not shown) [Compound 10]
RESULT: Satisfied
